Hi there, I'd appreciate the recorded IC50 for every entry that follows.
Assayed target: UniProt P00760
Run description: Trypsin inhibitory activity of peptides (BApNA hydrolysis, OD405; IC50, Ki, residual activity)
Assay type: biochemical
Details: trypsin 50 nM, BApNA 1.22 mM; read-out: IC50
Bridge positions count the residues as written; N and C are the ends. Square brackets hold non-standard residues; d marks the D form. Peptide text beside a SMILES is read from it. Hyp = O=C(O)[C@@H]1C[C@@H](O)CN1
Numbers only, in nM.

Example results:
CC[C@H](C)[C@@H]1NC(=O)[C@H](C)NC(=O)[C@@H]2CCCN2C(=O)[C@H]([C@@H](C)CC)NC(=O)[C@H](CO)NC(=O)[C@H](CCCCN)NC(=O)[C@H]([C@@H](C)O)NC(=O)[C@H](C)NC(=O)[C@H](CCCNC(=N)N)NC(=O)CNC(=O)[C@@H](N)CSSC[C@@H](C(=O)N[C@@H](Cc2ccccc2)C(=O)O)NC1=O [BT10] (H-CGRATKSIPAICF-OH; disulfide 1-12); 110
CC[C@H](C)[C@@H]1NC(=O)[C@@H]2CCCN2C(=O)[C@@H]2C[C@@H](O)CN2C(=O)[C@H]([C@@H](C)CC)NC(=O)[C@H](CO)NC(=O)[C@H](CCCCN)NC(=O)[C@H]([C@@H](C)O)NC(=O)[C@H](C)NC(=O)[C@H](CCCNC(=N)N)NC(=O)[C@H](C)NC(=O)[C@@H](N)CSSC[C@@H](C(=O)N[C@@H](Cc2ccccc2)C(=O)O)NC1=O [BT69] (H-CARATKSI[Hyp]PICF-OH; disulfide 1-12; C-terminus assumed); 60

Sure, the documented IC50 for CC[C@H](C)[C@@H]1NC(=O)[C@@H]2CCCN2C(=O)[C@@H]2CCCN2C(=O)[C@H]([C@@H](C)CC)NC(=O)[C@H](CO)NC(=O)[C@H](CCCCN)NC(=O)[C@H]([C@@H](C)O)NC(=O)[C@@H](NC(=O)[C@@H](N)CCCNC(=N)N)CSSC[C@@H](C(=O)N[C@@H](Cc2ccccc2)C(=O)O)NC1=O [BT45] (H-RCTKSIPPICF-OH; disulfide 2-10; C-terminus assumed) is 30

###

Assayed target: α-chymotrypsin (Bos taurus, UniProt P00766)
Bridge positions count the residues as written; N and C are the ends. Peptide text beside a SMILES is read from it.
Please go through the items and note down their pKi.
One number for each entry, as −log10 of the molar value.

CC[C@H](C)[C@@H]1NC(=O)[C@H](CO)NC(=O)[C@H](Cc2ccccc2)NC(=O)[C@H]([C@@H](C)O)NC(=O)[C@@H](NC(=O)[C@@H](N)CC(C)C)CSSC[C@@H](C(=O)N[C@@H](Cc2ccc(O)cc2)C(=O)NCC(=O)O)NC(=O)[C@H](CCC(N)=O)NC(=O)[C@@H]2CCCN2C(=O)[C@@H]2CCCN2C1=O [CH1] (H-LCTFSIPPQCYG-OH; disulfide 2-10; N-terminus and C-terminus assumed); 6.34
CC[C@H](C)[C@@H]1NC(=O)[C@H](CO)NC(=O)[C@H](Cc2ccc(O)cc2)NC(=O)[C@H]([C@@H](C)O)NC(=O)[C@H](C)NC(=O)[C@H](CO)NC(=O)CNC(=O)[C@@H](N)CSSC[C@@H](C(=O)N[C@@H](Cc2ccc(O)cc2)C(=O)NCC(=O)O)NC(=O)[C@H](CCC(N)=O)NC(=O)[C@@H]2CCCN2C(=O)[C@@H]2CCCN2C1=O [CH15] (H-CGSATYSIPPQCYG-OH; disulfide 1-12; N-terminus and C-terminus assumed); 5.70

Form field pKi, entry CC[C@H](C)[C@H](N)C(=O)N[C@H]1CSSC[C@@H](C(=O)N[C@H](C(=O)O)[C@@H](C)CC)NC(=O)[C@H](CCC(N)=O)NC(=O)[C@H](C)NC(=O)[C@@H]2CCCN2C(=O)[C@H]([C@@H](C)CC)NC(=O)[C@H](CO)NC(=O)[C@H](Cc2ccccc2)NC(=O)[C@H]([C@@H](C)O)NC1=O [CH38] (H-ICTFSIPAQCI-OH; disulfide 2-10; N-terminus and C-terminus assumed) : 5.67

###

Assayed target: bovine trypsin (Bos taurus, UniProt P00760)
Sequence (P00760 24-246): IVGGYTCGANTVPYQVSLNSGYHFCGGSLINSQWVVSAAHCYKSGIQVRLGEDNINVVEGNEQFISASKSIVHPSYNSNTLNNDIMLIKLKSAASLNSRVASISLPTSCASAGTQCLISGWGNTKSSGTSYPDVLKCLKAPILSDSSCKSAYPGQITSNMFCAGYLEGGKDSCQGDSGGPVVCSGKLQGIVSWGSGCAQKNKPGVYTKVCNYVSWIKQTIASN
Run description: Trypsin inhibitory activity of peptides (BApNA hydrolysis, OD405; IC50, Ki, residual activity)
Assay type: biochemical
Details: peptide 9.76 μM
Bridge positions count the residues as written; N and C are the ends. Peptide text beside a SMILES is read from it.
I'd be grateful if you could share measured Residual trypsin activity for these entries.
Numbers only, in %.

CC[C@H](C)[C@@H]1NC(=O)[C@@H]2CCCN2C(=O)[C@@H]2CCCN2C(=O)[C@H]([C@@H](C)CC)NC(=O)[C@H](CO)NC(=O)[C@H](CCCCN)NC(=O)[C@H]([C@@H](C)O)NC(=O)[C@H](Cc2ccc(O)cc2)NC(=O)[C@H](CCCNC(=N)N)NC(=O)CNC(=O)[C@@H](N)CSSC[C@@H](C(=O)N[C@@H](Cc2ccccc2)C(=O)O)NC1=O [BT53] (H-CGRYTKSIPPICF-OH; disulfide 1-12; C-terminus assumed); 0.2

Here is the next item to consider.
The compound CC[C@H](C)[C@@H]1NC(=O)[C@@H]2CCCN2C(=O)[C@@H]2CCCN2C(=O)[C@H]([C@@H](C)CC)NC(=O)[C@H](CO)NC(=O)[C@H](CCCCN)NC(=O)[C@H]([C@@H](C)O)NC(=O)[C@H](C)NC(=O)[C@H]([C@@H](C)O)NC(=O)CNC(=O)[C@@H](N)CSSC[C@@H](C(=O)N[C@@H](Cc2ccccc2)C(=O)O)NC1=O [BT25] (H-CGTATKSIPPICF-OH; disulfide 1-12; C-terminus assumed) showed Residual trypsin activity equal to 1.0

###

Assayed target: porcine pancreatic elastase (Sus scrofa, UniProt P00772)
Sequence (P00772 27-266): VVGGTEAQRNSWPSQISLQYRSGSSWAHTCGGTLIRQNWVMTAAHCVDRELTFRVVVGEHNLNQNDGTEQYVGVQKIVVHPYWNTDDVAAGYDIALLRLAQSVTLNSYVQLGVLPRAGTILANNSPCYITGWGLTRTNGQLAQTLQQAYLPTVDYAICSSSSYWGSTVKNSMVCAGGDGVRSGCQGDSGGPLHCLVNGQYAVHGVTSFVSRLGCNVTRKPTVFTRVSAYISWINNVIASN
Run description: Elastase inhibitory activity of peptides (AAApNA hydrolysis; IC50, Ki, residual activity)
Type: biochemical
Details: peptide 0.001 μM; elastase 0.5 μM, AAApNA 1 mM
Bridge positions count the residues as written; N and C are the ends. Peptide text beside a SMILES is read from it.
Metric name: Residual activity of elastase (%)
Answers are plain numbers, in %.

Known results for compounds:
CC[C@H](C)[C@@H]1NC(=O)[C@@H]2CCCN2C(=O)[C@@H]2CCCN2C(=O)[C@H]([C@@H](C)CC)NC(=O)[C@H](CO)NC(=O)[C@H](C)NC(=O)[C@H]([C@@H](C)O)NC(=O)[C@@H](NC(=O)[C@@H](N)Cc2ccc(O)cc2)CSSC[C@@H](C(=O)N[C@@H](CCC(N)=O)C(=O)O)NC1=O [EC29] (H-YCTASIPPICQ-OH; disulfide 2-10; C-terminus assumed); 105.9
CC[C@H](C)[C@@H]1NC(=O)[C@@H]2CCCN2C(=O)[C@@H]2CCCN2C(=O)[C@H]([C@@H](C)CC)NC(=O)[C@H](CO)NC(=O)[C@H](C)NC(=O)[C@H]([C@@H](C)O)NC(=O)[C@@H](NC(=O)[C@@H](N)CC(C)C)CSSC[C@@H](C(=O)N[C@@H](CCC(N)=O)C(=O)O)NC1=O [EC12] (H-LCTASIPPICQ-OH; disulfide 2-10; N-terminus and C-terminus assumed); 98.8

Now take the following compound into account.
Note to self: Residual activity of elastase recorded for CC[C@H](C)[C@@H]1NC(=O)[C@H](CO)NC(=O)[C@H](C)NC(=O)[C@H]([C@@H](C)O)NC(=O)[C@@H](NC(=O)[C@@H](N)CC(C)C)CSSC[C@@H](C(=O)N[C@@H](CCC(N)=O)C(=O)O)NC(=O)[C@H](CCC(N)=O)NC(=O)[C@@H]2CCCN2C(=O)[C@@H]2CCCN2C1=O [EC18] (H-LCTASIPPQCQ-OH; disulfide 2-10; N-terminus and C-terminus assumed) was 99.2

###

Assayed target: porcine pancreatic elastase (Sus scrofa, UniProt P00772)
Run description: Elastase inhibitory activity of peptides (AAApNA hydrolysis; IC50, Ki, residual activity)
Format: biochemical
Details: peptide 10 μM; elastase 0.5 μM, AAApNA 1 mM
Bridge positions count the residues as written; N and C are the ends. Peptide text beside a SMILES is read from it.
Exercise: for every item that follows, state its recorded Residual activity of elastase.
Answers are plain numbers, in %.

Fill in Residual activity of elastase for each of the 3 compounds listed.
1. CC[C@H](C)[C@@H]1NC(=O)[C@H](CO)NC(=O)[C@H](C)NC(=O)[C@H]([C@@H](C)O)NC(=O)[C@@H](NC(=O)[C@@H](N)CC(C)C)CSSC[C@@H](C(=O)N[C@@H](CCC(N)=O)C(=O)O)NC(=O)[C@H](CCC(N)=O)NC(=O)[C@@H]2CCCN2C(=O)[C@@H]2CCCN2C1=O [EC18] (H-LCTASIPPQCQ-OH; disulfide 2-10; N-terminus and C-terminus assumed)
2. CC[C@H](C)[C@@H]1NC(=O)[C@@H]2CCCN2C(=O)[C@@H]2CCCN2C(=O)[C@H]([C@@H](C)CC)NC(=O)[C@H](CO)NC(=O)[C@H](C)NC(=O)[C@H]([C@@H](C)O)NC(=O)[C@@H](NC(=O)[C@@H](N)C(C)C)CSSC[C@@H](C(=O)N[C@@H](CCC(N)=O)C(=O)O)NC1=O [EC22] (H-VCTASIPPICQ-OH; disulfide 2-10; C-terminus assumed)
3. CC[C@H](C)[C@H](N)C(=O)N[C@H]1CSSC[C@@H](C(=O)N[C@@H](CCC(N)=O)C(=O)O)NC(=O)[C@H](CCC(N)=O)NC(=O)[C@@H]2CCCN2C(=O)[C@@H]2CCCN2C(=O)[C@H]([C@@H](C)CC)NC(=O)[C@H](CO)NC(=O)[C@H](C)NC(=O)[C@H]([C@@H](C)O)NC1=O [EC19] (H-ICTASIPPQCQ-OH; disulfide 2-10; N-terminus and C-terminus assumed)

OUT:
[3.6, 2.4, 5.4]
